subject.of.test: Lysine-specific demethylase 4A (Homo sapiens)
procedure.text: qHTS Assay for Inhibitors of JMJD2A-Tudor Domain; note: nearly all actives have a fitted effect of over 50% in size
condition.info: AlphaScreen JMJD2A-Tudor / H3K4me3 peptide binding; series mostly up to 114 µM
Out of some 390,000 compounds screened, about 17,000 (4.4%) were called active. About 8% were inconclusive and are not listed. The list comes from a sample in which actives are over-represented; it also holds close analogues and randomly drawn compounds.
quantity.measured: outcome

[
  {
    "compound": "CCCC(=O)N1c2ccc(-c3csc(N)n3)cc2CC1C (stereo not drawn)",
    "subject.of.test": "Lysine-specific demethylase 4A (Homo sapiens)",
    "result": "inactive"
  },
  {
    "compound": "CCOc1ccccc1CNC(=O)Nc1cn(CC(C)C)c(=O)c2ccccc12",
    "subject.of.test": "Lysine-specific demethylase 4A (Homo sapiens)",
    "result": "inactive"
  },
  {
    "compound": "CC1CCCCN1S(=O)(=O)CCNC(=O)c1ccccc1 (stereo not drawn)",
    "subject.of.test": "Lysine-specific demethylase 4A (Homo sapiens)",
    "result": "inactive"
  }
]

----------
subject.of.test: Lysine-specific demethylase 4A (Homo sapiens) (UniProt O75164)
Sequence (O75164 whole entry, looked up, the tested form may be a part): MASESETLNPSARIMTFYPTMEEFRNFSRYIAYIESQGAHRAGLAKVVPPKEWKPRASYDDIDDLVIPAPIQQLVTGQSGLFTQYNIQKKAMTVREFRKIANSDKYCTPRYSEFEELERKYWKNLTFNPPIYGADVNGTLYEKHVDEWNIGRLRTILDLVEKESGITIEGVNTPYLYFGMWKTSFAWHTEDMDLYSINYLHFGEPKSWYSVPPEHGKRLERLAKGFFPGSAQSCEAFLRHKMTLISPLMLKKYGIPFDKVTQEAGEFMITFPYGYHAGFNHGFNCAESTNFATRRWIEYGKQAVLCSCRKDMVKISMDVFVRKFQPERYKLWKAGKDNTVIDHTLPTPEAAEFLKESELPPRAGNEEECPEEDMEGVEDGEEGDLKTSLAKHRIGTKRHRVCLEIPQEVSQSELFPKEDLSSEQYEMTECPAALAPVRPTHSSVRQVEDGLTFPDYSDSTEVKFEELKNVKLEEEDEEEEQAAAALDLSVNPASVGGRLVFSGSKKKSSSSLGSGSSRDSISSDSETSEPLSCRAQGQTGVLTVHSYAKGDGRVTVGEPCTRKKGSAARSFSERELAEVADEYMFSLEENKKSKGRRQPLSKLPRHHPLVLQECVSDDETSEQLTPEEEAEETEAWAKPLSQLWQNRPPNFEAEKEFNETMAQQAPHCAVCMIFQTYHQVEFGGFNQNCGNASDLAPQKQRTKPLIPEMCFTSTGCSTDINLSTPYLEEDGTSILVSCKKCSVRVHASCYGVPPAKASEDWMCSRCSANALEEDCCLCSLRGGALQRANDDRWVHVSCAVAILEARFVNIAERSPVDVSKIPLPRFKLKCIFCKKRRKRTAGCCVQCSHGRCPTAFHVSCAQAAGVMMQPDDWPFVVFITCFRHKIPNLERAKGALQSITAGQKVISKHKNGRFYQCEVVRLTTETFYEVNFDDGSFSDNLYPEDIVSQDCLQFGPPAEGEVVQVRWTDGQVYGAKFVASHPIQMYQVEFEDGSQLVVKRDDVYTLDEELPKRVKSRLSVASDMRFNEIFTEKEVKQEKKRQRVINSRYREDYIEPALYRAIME
procedure.text: qHTS Assay for Inhibitors of JMJD2A-Tudor Domain; note: nearly all actives have a fitted effect of over 50% in size
condition.info: AlphaScreen JMJD2A-Tudor / H3K4me3 peptide binding; series mostly up to 114 µM
Among all 390,000 compounds or so, about 17,000 (4.4%) were called active. Not shown: some 8% with an inconclusive outcome. Calls come from the whole dose curve; as a rule, active = well fitted inhibition curve with a large enough effect; inconclusive = small, poorly fitted or top-dose-only effect; inactive = no such curve, though single readings can be large or run the other way. For the sample, actives were picked, then their nearest neighbours and some compounds at random.
Can you answer with just one of these options? active, inactive

Just curious, what result did Cc1cccc(C)c1NC(=S)N1CCCCCC1 get here?
inactive

What would you report for CCCN(C(=O)Cn1cc(S(=O)(=O)N2CCN(c3ccccc3F)CC2)c2ccccc2c1=O)c1cccc(C)c1 ?
inactive

----------
subject.of.test: Lysine-specific demethylase 4A (Homo sapiens) (UniProt O75164)
procedure.text: qHTS Assay for Inhibitors of JMJD2A-Tudor Domain; note: nearly all actives have a fitted effect of over 50% in size
condition.info: AlphaScreen JMJD2A-Tudor / H3K4me3 peptide binding; series mostly up to 114 µM
Screen size: about 390,000 compounds; about 17,000 (4.4%) were called active. Not shown: some 8% with an inconclusive outcome. Calls follow the shape of the dose curve; as a rule, active = well fitted inhibition curve with a large enough effect; inconclusive = small, poorly fitted or top-dose-only effect; inactive = no such curve, though single readings can be large or run the other way. The list comes from a sample in which actives are over-represented; it also holds close analogues and randomly drawn compounds.
Can you answer with just one of these options? yes for active, no for inactive

Use these answered entries as a reference point.
[
  {
    "molecule": "Cc1cc(/C=C(/C#N)C(=O)Nc2ccc(Cl)cc2)c(C)n1-c1cccnc1",
    "class": "no"
  },
  {
    "molecule": "c1cnc(N2CCN(c3ccc4ccccc4n3)CC2)nc1",
    "class": "no"
  }
]

Just curious, what result did CCC1CCCCN1C(=O)Cn1c(=O)n(CCCCCC(=O)NCc2ccccc2)c(=O)c2sccc21 (stereo unspecified) get here?
no

What would you report for CC1=C(N2CCN(c3ncccn3)CC2)CCC1=O ?
no

----------
subject.of.test: Lysine-specific demethylase 4A (Homo sapiens)
procedure.text: qHTS Assay for Inhibitors of JMJD2A-Tudor Domain; note: nearly all actives have a fitted effect of over 50% in size
condition.info: AlphaScreen JMJD2A-Tudor / H3K4me3 peptide binding; series mostly up to 114 µM
The whole screen tested about 390,000 compounds, of which about 17,000 (4.4%) were called active. About 8% were inconclusive and are not listed. Calls come from the whole dose curve; as a rule, active = well fitted inhibition curve with a large enough effect; inconclusive = small, poorly fitted or top-dose-only effect; inactive = no such curve, though single readings can be large or run the other way. The entries come from a sample that favours actives as a whole.
Can you answer with just one of these options? active, inactive

[
  {
    "molecule": "CSc1ccc(C2C(C(=O)Nc3ccccc3)=C(C)Nc3nc4ccccc4n32)cc1 (stereo not given)",
    "class": "inactive"
  },
  {
    "molecule": "CC1CCN(C(=O)c2ccc3c(c2)NC(=O)CN3)CC1",
    "class": "inactive"
  },
  {
    "molecule": "Cc1ccc(SCC(=O)N2CCN(c3ccc(F)cc3)CC2)cc1",
    "class": "inactive"
  },
  {
    "molecule": "CCN(CC)CCOc1ccc2c(c1)C(=NNC(=O)c1ccccn1)c1cc(OCCN(CC)CC)ccc1-2",
    "class": "active"
  },
  {
    "molecule": "O=C(Nc1ccccc1Br)c1cc(CN2CCCC2)on1",
    "class": "inactive"
  },
  {
    "molecule": "CCc1ccc(NC(=O)Cn2c(=O)n(CCC(=O)NCc3ccc4c(c3)OCO4)c(=O)c3ccccc32)cc1",
    "class": "inactive"
  }
]

Switching to the query record.
Just curious, what result did CCC(=O)N1CCc2cc(CNS(=O)(=O)c3ccc(Br)s3)ccc21 get here?
inactive

The reported measurements were obtained from PubChem BioAssay AID504339.
